measured-target: MOR (Homo sapiens)
test-description: cell-based
Assay type: cell-based
Design: host or cells: U2OS-β-arrestin2-EFC-hMOR
measured-quantity: EC50 (nM)
Report the value in nM with no unit label.

Lab entry: MOR (Homo sapiens) assay, molecule Oc1cccc([C@]23CCC[C@H]([C@H]2O)N(C[C@H]2C[C@@H]2c2ccccc2)CC3)c1 (stereo in doubt) , EC50 = 22

----------
measured-target: MOR (Homo sapiens)
test-description: cell-based
Assay type: cell-based
Design: host or cells: U2OS-β-arrestin2-EFC-hMOR
conditions: Table 2; read-out: MOR Mediated B-arrestin Recruitment
Reported EC50 by item:

Consider the reported EC50 for these molecules:
CCOC(=O)C[C@@H]1[C@H]2CCC[C@]1(c1cccc(O)c1)CCN2CCc1ccccc1 [Compound 27]; 175 nM
OC[C@@H]1CC[C@@]2(c3cccc(O)c3)CCN(CCc3ccccc3)[C@H]1C2 (stereo in doubt) [Compound 35]; > 25000 nM

Moving on to the next molecule.
EC50 value, target or system MOR (Homo sapiens), for CCOC(=O)C[C@H]1[C@@H]2CCC[C@@]1(c1cccc(O)c1)CCN2CCc1ccccc1 [Compound 28] : 58.8 nM

----------
measured-target: MOR (Homo sapiens)
test-description: cell-based
Assay type: cell-based
Set-up: expressed in transfected cells; host or cells: CHO-hMOR (membrane variant); SH-SY5Y-hMOR also named
measured-quantity: EC50 (nM)
Could you give me the number in nM? Just the number is fine.

Oc1cccc([C@]23CCC[C@H]([C@H]2O)N(C[C@H]2C[C@@H]2c2ccccc2)CC3)c1 (stereo in doubt) [Compound 45] yielded EC50 of 0.12

----------
measured-target: μ opioid receptor (Rattus norvegicus)
Sequence (P33535 whole entry): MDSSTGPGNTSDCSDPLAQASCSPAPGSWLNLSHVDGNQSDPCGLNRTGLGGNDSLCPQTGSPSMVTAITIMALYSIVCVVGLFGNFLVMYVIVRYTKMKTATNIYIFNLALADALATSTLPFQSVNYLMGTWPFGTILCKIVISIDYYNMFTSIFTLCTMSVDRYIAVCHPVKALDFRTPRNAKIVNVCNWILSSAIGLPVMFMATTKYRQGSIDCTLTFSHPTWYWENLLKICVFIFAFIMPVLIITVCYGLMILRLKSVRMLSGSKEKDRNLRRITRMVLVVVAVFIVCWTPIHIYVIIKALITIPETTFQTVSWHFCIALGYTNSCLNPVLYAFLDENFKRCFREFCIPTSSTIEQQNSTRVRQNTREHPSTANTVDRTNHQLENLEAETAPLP
test-description: biochemical
measured-quantity: Ki (pM)
Give your result in pM as a bare value.

Form field Ki, entry COC(=O)CC[C@H]1[C@@H]2CCC[C@@]1(c1cccc(O)c1)CCN2CCc1ccccc1 [Compound 8] : 900

----------
measured-target: MOR (Homo sapiens)
test-description: cell-based
Format: cell-based
Set-up: expressed in transfected cells; host or cells: CHO-hMOR (membrane variant); SH-SY5Y-hMOR also named
conditions: Table 2; inhibition of forskolin-induced cAMP accumulation; read-out: MOR cAMP Agonist Potency ± SEM
Assign labels as follows, please: rule met for EC50 below 3 nM; rule not met for EC50 equal to or exceeding 3 nM.

CCOC(=O)C[C@H]1[C@@H]2CCC[C@@]1(c1cccc(O)c1)CCN2CCc1ccccc1 [Compound 28]; rule not met
OC/C=C/[C@H]1[C@@H]2CCC[C@@]1(c1cccc(O)c1)CCN2CCc1ccccc1 [Compound 37]; rule met
CCC[C@H]1[C@@H]2CCC[C@@]1(c1cccc(O)c1)CCN2CCc1ccccc1 [Compound 15]; rule met

Ask | # strict comparison: is reported EC50 < 3 nM? input = CCOC(=O)C[C@@H]1[C@H]2CCC[C@]1(c1cccc(O)c1)CCN2CCc1ccccc1 [Compound 27]
Reply | rule not met

----------
measured-target: MOR (Homo sapiens)
test-description: cell-based
Assay type: cell-based
Set-up: expressed in transfected cells; host or cells: CHO-hMOR (membrane variant); SH-SY5Y-hMOR also named
conditions: Table 3; inhibition of forskolin-induced cAMP accumulation; read-out: MOR cAMP Agonist Potency ± SEM
measured-quantity: EC50 (nM)
# output: bare number, implied unit nM

C[C@H]1[C@H]2CCC[C@@]1(c1cccc(O)c1)CCN2CCc1ccccc1 [(+)-48]; 0.4
C[C@@H]1[C@@H]2CCC[C@@]1(c1cccc(O)c1)CCN2CCc1ccccc1 (single isomer, unassigned) [(−)-48]; 12.1

# EC50 (compound: Oc1cccc2c1O[C@H]1CN(CCc3ccccc3)[C@H]3CCC[C@@]21C3 ) is 0.5

----------
measured-target: δ opioid receptor (Rattus norvegicus, UniProt P33533)
Sequence (P33533 whole entry): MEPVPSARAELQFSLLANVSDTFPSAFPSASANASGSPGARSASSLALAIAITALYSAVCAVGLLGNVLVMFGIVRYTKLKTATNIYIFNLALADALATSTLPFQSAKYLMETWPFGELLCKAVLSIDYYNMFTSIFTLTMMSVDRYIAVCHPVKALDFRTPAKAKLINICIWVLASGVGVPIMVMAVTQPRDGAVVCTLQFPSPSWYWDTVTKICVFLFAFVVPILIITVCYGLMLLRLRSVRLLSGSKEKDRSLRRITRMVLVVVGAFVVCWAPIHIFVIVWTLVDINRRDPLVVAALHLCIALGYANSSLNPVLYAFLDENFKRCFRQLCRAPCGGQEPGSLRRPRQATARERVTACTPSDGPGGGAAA
measured-quantity: pKi
Reminder that pKi is minus the log10 of a molar concentration.

The recorded pKi for COC(=O)CC[C@H]1[C@@H]2CCC[C@@]1(c1cccc(O)c1)CCN2CCc1ccccc1 is 6.93

----------
measured-target: UniProt:P34975
Sequence (P34975 whole entry): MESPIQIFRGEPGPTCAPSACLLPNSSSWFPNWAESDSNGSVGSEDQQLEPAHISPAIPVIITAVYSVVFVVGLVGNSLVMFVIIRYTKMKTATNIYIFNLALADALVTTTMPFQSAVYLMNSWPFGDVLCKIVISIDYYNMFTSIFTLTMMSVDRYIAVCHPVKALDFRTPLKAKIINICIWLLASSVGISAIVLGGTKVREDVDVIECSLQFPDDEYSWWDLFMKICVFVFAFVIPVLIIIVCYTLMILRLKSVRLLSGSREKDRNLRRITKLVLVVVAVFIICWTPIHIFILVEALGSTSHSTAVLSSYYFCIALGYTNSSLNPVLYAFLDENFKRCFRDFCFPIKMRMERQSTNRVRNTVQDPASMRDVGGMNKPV
measured-quantity: pKi
The scale used: pKi is minus the common logarithm of the concentration in molar units.

Observed pKi on UniProt:P34975, entry COC(=O)CC[C@H]1[C@@H]2CCC[C@@]1(c1cccc(O)c1)CCN2CCc1ccccc1 [Compound 8] , equals 7.63

----------
measured-target: MOR (Homo sapiens)
Assay type: cell-based
Design: expressed in transfected cells; host or cells: CHO-hMOR (membrane variant); SH-SY5Y-hMOR also named
conditions: Table 3
measured-quantity: Bias Factor
Please give the numeric answer without any surrounding text.

C[C@@H]1[C@@H]2CCC[C@@]1(c1cccc(O)c1)CCN2CCc1ccccc1 [(−)-48]; 2056
C[C@H]1[C@H]2CCC[C@@]1(c1cccc(O)c1)CCN2CCc1ccccc1 [(+)-48]; 6.7
Oc1cccc2c1O[C@H]1CN(CCc3ccccc3)[C@H]3CCC[C@@]21C3; 21454

Alright, here's another molecule for you.
Field Bias Factor (system: MOR (Homo sapiens)) for entry Oc1cccc(C23CCC[C@H]([C@H]2O)N(C/C=C/c2ccccc2)CC3)c1 (stereo in doubt) = 27.120

----------
measured-target: MOR (Homo sapiens, UniProt P35372)
Sequence (P35372 whole entry): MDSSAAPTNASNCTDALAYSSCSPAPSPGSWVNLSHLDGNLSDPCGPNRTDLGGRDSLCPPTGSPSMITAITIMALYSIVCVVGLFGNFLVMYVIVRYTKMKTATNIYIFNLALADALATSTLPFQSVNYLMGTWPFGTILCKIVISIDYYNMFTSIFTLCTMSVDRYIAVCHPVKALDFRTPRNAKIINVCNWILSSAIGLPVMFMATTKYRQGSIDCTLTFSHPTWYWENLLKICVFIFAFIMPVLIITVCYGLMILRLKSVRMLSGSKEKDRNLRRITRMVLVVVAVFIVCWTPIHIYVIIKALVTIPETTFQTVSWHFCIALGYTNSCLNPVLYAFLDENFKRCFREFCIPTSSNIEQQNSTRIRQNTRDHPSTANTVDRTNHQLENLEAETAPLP
test-description: cell-based
Format: cell-based
Design: expressed in transfected cells; host or cells: CHO-hMOR (membrane variant); SH-SY5Y-hMOR also named
conditions: Table 2; read-out: MOR cAMP Agonist (% Efficacy) (converted)
We use 60% as the dividing line for Emax: on or above the line is Met, below is Not met.

Examples from the recorded data:
CCOC(=O)C[C@@H]1[C@H]2CCC[C@]1(c1cccc(O)c1)CCN2CCc1ccccc1; Met
OC/C=C/[C@H]1[C@@H]2CCC[C@@]1(c1cccc(O)c1)CCN2CCc1ccccc1; Not met
OC[C@@H]1CC[C@@]2(c3cccc(O)c3)CCN(CCc3ccccc3)[C@H]1C2 (stereo in doubt); Not met
CCOC(=O)/C=C1\[C@H]2CCC[C@]1(c1cccc(O)c1)CCN2CCc1ccccc1; Met
CCOC(=O)C[C@H]1[C@@H]2CCC[C@@]1(c1cccc(O)c1)CCN2CCc1ccccc1; Met

Next:
Ask | Determine whether this compound has Emax no lower than 60%: CCC[C@H]1[C@@H]2CCC[C@@]1(c1cccc(O)c1)CCN2CCc1ccccc1
Reply | Met

----------
measured-target: MOR (Homo sapiens)
test-description: cell-based
Type: cell-based
Parameters: host or cells: U2OS-β-arrestin2-EFC-hMOR
conditions: Table 4; read-out: MOR Mediated B-arrestin Recruitment
measured-quantity: EC50 (nM)
Give the value in nM but do not write nM after it.

O=C1CCC2C3Cc4ccc(O)c5c4[C@@]2(CCN3CCc2ccc(Cl)cc2)[C@H]1O5 (stereo partly shown) tested on MOR (Homo sapiens) gave EC50: 2.44

----------
measured-target: MOR (Homo sapiens, UniProt P35372)
Assay type: cell-based
Parameters: expressed in transfected cells; host or cells: CHO-hMOR (membrane variant); SH-SY5Y-hMOR also named
conditions: Table 2
In this section we review reported Bias Factor values for a set of compounds.
Could you keep your reply to the number by itself?

Reference set, count: 4
CCOC(=O)/C=C1\[C@H]2CCC[C@]1(c1cccc(O)c1)CCN2CCc1ccccc1; 179
CCOC(=O)C[C@H]1[C@@H]2CCC[C@@]1(c1cccc(O)c1)CCN2CCc1ccccc1; 4.8
OC[C@@H]1CC[C@@]2(c3cccc(O)c3)CCN(CCc3ccccc3)[C@H]1C2 (stereo in doubt); 1254
OC/C=C/[C@H]1[C@@H]2CCC[C@@]1(c1cccc(O)c1)CCN2CCc1ccccc1; 6794

For CCOC(=O)C[C@@H]1[C@H]2CCC[C@]1(c1cccc(O)c1)CCN2CCc1ccccc1 the compound record lists Bias Factor as 6.7

----------
measured-target: UniProt P35372
test-description: cell-based
Assay type: cell-based
Parameters: expressed in transfected cells; host or cells: CHO-hMOR (membrane variant); SH-SY5Y-hMOR also named
conditions: Table 3; read-out: MOR cAMP Agonist (% Efficacy) (converted)
Procedure: Four thousand cells per well were split into 384-well low-volume plate (VWR) with Opti-MEM (Invitrogen) supplemented with 1% FBS for 3 hours at 37° C. except SH-SY5Y-hMOR cells, which were plated for 1 hour at 37° C. […] Cells were then homogenized by a Dounce homogenizer 15 times in an ice-cold buffer [50 mM Hepes (pH 7.4)], followed by centrifugation at 500 g at 4° C. for 5 min. […] The cAMP levels were determined as per the manufacturer's instructions (Cisbio cAMP HiRange assay).
measured-quantity: Emax (%)
Quick reminder: number only, in %, skip the unit.

Oc1cccc2c1O[C@H]1CN(CCc3ccccc3)[C@H]3CCC[C@@]21C3; 32.8
C[C@H]1[C@H]2CCC[C@@]1(c1cccc(O)c1)CCN2CCc1ccccc1 [(+)-48]; 91
Oc1cccc(C23CCC[C@H]([C@H]2O)N(C/C=C/c2ccccc2)CC3)c1 (stereo in doubt); 100

Field: next molecule
Lab book: Emax of C[C@@H]1C2CCC[C@@]1(c1cccc(O)c1)CCN2CCc1ccccc1 (single isomer, unassigned; (-)) [(−)-48] noted as 71
